methodDescription: qHTS assay to identify small molecule antagonists of the estrogen related receptor signaling pathway with the pleiotropic PPARgamma coactivator (PGC) from Tox21 10K library (AID 1224841); further: actives are mostly falling curves and most rising ones were filed inactive; nearly all actives have a fitted effect of over 50% in size
experimentalSetup: PGC/ERR reporter cell line, ONE-Glo luciferase, 18 h; series mostly up to 92.4 µM
Inconclusive results are not listed. Calls of active or inactive are those of the source. How the calls were made is not given here.
Labels: 1 for active, -1 for inactive

- molecule: "c1ccc2cnncc2c1"
  classAssignment: 1
- molecule: "Nc1ccn(C2CO[C@H](CO)O2)c(=O)n1 (stereo partly drawn)"
  classAssignment: -1
- molecule: "CN(C)N=Nc1ccccc1"
  classAssignment: -1
- molecule: "CC(C)(C)C(=O)/C=C/c1ccc(Cl)cc1"
  classAssignment: -1
- molecule: "Nc1nc2c(ncn2CCC(CO)CO)c(=O)[nH]1"
  classAssignment: -1
- molecule: "CC(C)c1cccc(O)c1"
  classAssignment: -1
- molecule: "C=CC(=O)N1CCOCC1"
  classAssignment: -1
- molecule: "O=[N+]([O-])c1ccc(Oc2ccc([N+](=O)[O-])cc2)cc1"
  classAssignment: -1

###

methodDescription: qHTS assay for identifying genotoxic compounds that show differential cytotoxicity against isogenic chicken DT40 cell lines with known DNA damage response pathways - Rev3 mutant cell line (AID 743014); further: nearly all actives have a fitted effect of over 55% in size
experimentalSetup: chicken DT40 Rev3-/- viability, CellTiter-Glo, 40 h; series mostly up to 68.4 µM
From the text: National Center for Advancing Translational Sciences [NCATS] NIH Chemical Genomics Center [NCGC] U.S. Environmental Protection Agency [EPA] National Institutes of Environmental Health Sciences [NIEHS] National Toxicology Program [NTP] U.S. Food and Drug Administration [FDA] DNA repair pathways play a critical role in cellular homeostasis by repairing DNA damage induced by endogenous processes and xenobiotics. […]
Inconclusive results are not listed. The source made the active and inactive calls. Calls come from the whole dose curve; as a rule, active = well fitted cell-killing curve with a large enough effect in the repeat runs; inconclusive = weak or mixed curves, or effect the other way; inactive = no such curve, though single readings can be large or run the other way.
Labels: active, inactive

- compound: "C=CCOCC(O)CS(=O)(=O)O (stereo not given)"
  classAssignment: "inactive"
- compound: "C=C(C)C(=O)OCCC(C)OC(=O)C(=C)C (stereo not given)"
  classAssignment: "inactive"
- compound: "CC(C)COC(=O)C(C)C"
  classAssignment: "inactive"
- compound: "CC12CCC(CC1=O)C2(C)C (stereo not given)"
  classAssignment: "inactive"
- compound: "O=C1OC(=O)c2cc([N+](=O)[O-])ccc21"
  classAssignment: "inactive"
- compound: "CCC(C)OC(=O)N1CCCCC1CCO (stereo not given)"
  classAssignment: "inactive"
- compound: "C[C@H](O)C(=O)Nc1c(I)c(C(=O)NC(CO)CO)c(I)c(C(=O)NC(CO)CO)c1I"
  classAssignment: "inactive"
- compound: "CC(C)c1ccc2oc3nc(N)c(C(=O)O)cc3c(=O)c2c1"
  classAssignment: "inactive"
- compound: "CN(C)CCOC(c1ccc(Cl)cc1)c1ccccn1 (stereo not given)"
  classAssignment: "inactive"
- compound: "CCCCCCCCCCCCI"
  classAssignment: "active"
- compound: "C#CC(C)(O)CC(C)C (stereo not given)"
  classAssignment: "inactive"
- compound: "OCCCCCCO"
  classAssignment: "inactive"
- compound: "C=CCn1c(=O)n([C@@H]2O[C@H](CO)[C@@H](O)[C@H]2O)c2nc(N)[nH]c(=O)c21"
  classAssignment: "inactive"
- compound: "COCCOC(=O)CC#N"
  classAssignment: "inactive"
- compound: "COc1nc(C)nc(N)n1"
  classAssignment: "inactive"
- compound: "CN(C)C(=O)C(CCN1CCC(O)(c2ccc(Cl)cc2)CC1)(c1ccccc1)c1ccccc1"
  classAssignment: "active"
- compound: "Cc1nccn1CC1CCc2c(c3ccccc3n2C)C1=O (stereo not given)"
  classAssignment: "inactive"
- compound: "COc1cc(C(=O)N2CCOCC2)cc(OC)c1OC"
  classAssignment: "inactive"
- compound: "NC(=O)c1ncn([C@@H]2O[C@H](CO)[C@@H](O)[C@H]2O)c1O"
  classAssignment: "inactive"
- compound: "CC(C)(C)CC(C)(C)N"
  classAssignment: "inactive"
- compound: "CCCCOCC(C)OCC(C)O (stereo not given)"
  classAssignment: "inactive"
- compound: "COc1ccc(NC(C)=O)cc1"
  classAssignment: "inactive"
- compound: "c1ccc2cnncc2c1"
  classAssignment: "inactive"
- compound: "COC(=O)CCCC(=O)O"
  classAssignment: "inactive"
- compound: "CC(=O)CCc1ccc(O)cc1"
  classAssignment: "inactive"
- compound: "O=C(O)/C=C/c1ccc(/C=C/C(=O)O)cc1"
  classAssignment: "inactive"
- compound: "COCc1ccc(COC)cc1"
  classAssignment: "inactive"
- compound: "N#CCc1ccccc1[N+](=O)[O-]"
  classAssignment: "inactive"
- compound: "Fc1ccccc1-c1ccccc1"
  classAssignment: "inactive"
- compound: "COC(=O)CCCCCCCCC(=O)OC"
  classAssignment: "inactive"

###

testSystem: Cytochrome P450 1A2 (Homo sapiens) (UniProt P05177)
Sequence (P05177 whole entry, looked up): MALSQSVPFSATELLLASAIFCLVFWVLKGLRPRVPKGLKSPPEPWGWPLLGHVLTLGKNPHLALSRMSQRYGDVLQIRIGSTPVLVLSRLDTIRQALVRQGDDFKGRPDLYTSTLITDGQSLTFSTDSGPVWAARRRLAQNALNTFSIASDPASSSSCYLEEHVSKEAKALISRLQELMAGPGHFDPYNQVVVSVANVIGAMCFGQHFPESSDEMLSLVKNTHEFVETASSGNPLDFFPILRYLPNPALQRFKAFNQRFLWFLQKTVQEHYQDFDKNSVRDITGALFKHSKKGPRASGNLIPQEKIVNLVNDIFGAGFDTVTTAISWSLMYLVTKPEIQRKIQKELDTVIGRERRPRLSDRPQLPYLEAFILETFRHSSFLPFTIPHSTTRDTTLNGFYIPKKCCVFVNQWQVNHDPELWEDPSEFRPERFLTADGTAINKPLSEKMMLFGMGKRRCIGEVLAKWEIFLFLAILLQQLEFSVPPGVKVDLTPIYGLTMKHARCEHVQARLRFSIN
methodDescription: Cytochrome P450 Family 1 Subfamily A Member 2 (CYP1A2) small molecule antagonists: luciferase reporter qHTS assay (AID 1671199); further: nearly all actives have a fitted effect of over 50% in size
experimentalSetup: P450-Glo CYP1A2 enzyme, luciferin luminescence, 1 h; series mostly up to 53 µM
Inconclusive results are not listed. The source made the active and inactive calls. Calls come from the whole dose curve; as a rule, active = well fitted inhibition curve with a large enough effect in the repeat runs; inconclusive = weak or mixed curves; inactive = no such curve, though single readings can be large or run the other way.
Labels: active, inactive

- molecule: "OCc1ccccn1"
  classAssignment: "inactive"
- molecule: "CCC(=O)/C=C/c1ccc(OC)cc1"
  classAssignment: "active"
- molecule: "O=[N+]([O-])c1ccc(Oc2ccc([N+](=O)[O-])cc2)cc1"
  classAssignment: "inactive"
- molecule: "Nc1nc2c(ncn2CCC(CO)CO)c(=O)[nH]1"
  classAssignment: "inactive"
- molecule: "O=C(CCOCCOCCOCCOCCC(=O)Nc1c(I)cc(I)c(C(=O)O)c1I)Nc1c(I)cc(I)c(C(=O)O)c1I"
  classAssignment: "inactive"
- molecule: "CN1[C@@H]2CC[C@H]1CC(NC(=O)n1c(=O)[nH]c3ccccc31)C2 (stereo partly drawn)"
  classAssignment: "inactive"
- molecule: "Nc1nc(F)nc2c1ncn2[C@@H]1O[C@H](CO)[C@@H](O)[C@@H]1O"
  classAssignment: "inactive"
- molecule: "CC(C)(C)C(=O)/C=C/c1ccc(Cl)cc1"
  classAssignment: "active"
- molecule: "CCN1CCCC(OC(=O)C(c2ccccc2)c2ccccc2)C1 (stereo not drawn)"
  classAssignment: "inactive"
- molecule: "CC(C)=CCC/C(C)=C/C(=O)O"
  classAssignment: "inactive"
- molecule: "C#CC(O)C(CC)CCCC (stereo not drawn)"
  classAssignment: "inactive"
- molecule: "CC(C)CCOC(=O)CC(C)C"
  classAssignment: "inactive"
- molecule: "Nc1ncnc2c1ncn2Cc1c(F)cccc1Cl"
  classAssignment: "inactive"
